Measured IC50 by item
Molecular target: FGFR2 (h) (Homo sapiens)
Sequence (P21802 22-821): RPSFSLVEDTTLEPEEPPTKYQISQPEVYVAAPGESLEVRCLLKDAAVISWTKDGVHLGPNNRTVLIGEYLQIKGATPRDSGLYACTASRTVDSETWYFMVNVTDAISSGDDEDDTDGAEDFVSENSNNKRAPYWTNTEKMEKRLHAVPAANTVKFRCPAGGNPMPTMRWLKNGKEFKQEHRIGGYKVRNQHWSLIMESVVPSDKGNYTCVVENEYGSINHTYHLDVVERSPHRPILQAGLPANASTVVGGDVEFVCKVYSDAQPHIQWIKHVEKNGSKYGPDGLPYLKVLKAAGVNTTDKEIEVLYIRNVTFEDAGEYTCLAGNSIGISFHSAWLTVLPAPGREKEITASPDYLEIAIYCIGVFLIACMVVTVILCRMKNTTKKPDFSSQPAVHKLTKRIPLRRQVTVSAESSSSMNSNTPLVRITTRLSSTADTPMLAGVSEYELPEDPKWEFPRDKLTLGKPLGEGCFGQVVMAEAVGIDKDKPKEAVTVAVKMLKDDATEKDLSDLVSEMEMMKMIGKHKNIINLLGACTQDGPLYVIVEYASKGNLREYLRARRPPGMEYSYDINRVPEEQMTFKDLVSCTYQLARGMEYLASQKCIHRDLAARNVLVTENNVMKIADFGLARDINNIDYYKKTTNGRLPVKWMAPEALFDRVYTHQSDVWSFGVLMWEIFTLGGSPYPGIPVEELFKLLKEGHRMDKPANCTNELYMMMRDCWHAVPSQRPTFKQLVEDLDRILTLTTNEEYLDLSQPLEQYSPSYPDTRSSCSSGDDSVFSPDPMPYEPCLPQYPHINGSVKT
Assay: FGFR2 (enzymatic assay), TR-FRET
Assay type: biochemical
Details: read-out: FGFR 2 pIC50 (converted)
Answer shape: numeric part, then the unit.

Previously resolved entries follow.
COc1cc(OC)cc(N(CCO)c2ccc3ncc(-c4ccc(N)nc4)nc3c2)c1 [Compound 106]; 0.00582 µM
COc1cc(OC)cc(N(CCN2CCOCC2)c2ccc3ncc(-c4ccc(N)nc4)nc3c2)c1 [Compound 169]; 0.0158 µM
COc1cc(OC)cc(N(CC2CC2)c2ccc3ncc(NC(=O)c4ccc(F)cc4)nc3c2)c1 [Compound 28]; 6.17 µM
COc1cc(OC)cc(N(CCCO)c2ccc3ncc(-c4ccc(C)nc4)nc3c2)c1 [Compound 115]; 0.0135 µM
COc1cc(OC)cc(N(CCNC(C)C)c2ccc3ncc(C(=O)NCCCN4CCCCC4)nc3c2)c1 [Compound 182]; 0.0263 µM

Lab note: COc1cc(OC)cc(N(CCCNCC(F)(F)F)c2ccc3ncc(C(=O)NCCN4CCOCC4)nc3c2)c1 [Compound 158] gave IC50 of 0.661 µM

The recorded IC50 for entry COc1cc(OC)cc(N(CCN2CCN(C(C)=O)CC2)c2ccc3ncc(-c4ccc(N)nc4)nc3c2)c1 [Compound 68] equals 0.0339 µM

Quick note, IC50 for COc1cc(OC)cc(N(CC#Cc2ncccn2)c2ccc3ncc(-c4cccnc4)nc3c2)c1 [Compound 2] landed at 0.0347 µM

These entries and their values trace back to patent US10052320B2.
